FYI, the data here is from paper PMC5301048.

# test protocol: CSF study, plasma and CSF pharmacokinetics
# Type: in vivo
# condition summary: male, plasma, oral; human, 35 mg b.i.d, Day 1; median (range); read-out: Tmax
readout: Tmax (h)
API: value field is a number in h; no unit string.

input: Look up Tmax of O=C(c1csc(-c2cn[nH]c2)c1)N1C2CCC1CC(O)(c1ncccn1)C2 (stereo not shown) and report it.
output: 5.1

###

# test protocol: Single ascending dose study, pharmacokinetics
# Type: in vivo
# condition summary: both sexes, plasma; human, single oral dose 18 mg; mean (CV%)
readout: half-life (h)
Give just the numeric value; h need not be written.

input: Give the measured half-life for O=C(c1csc(-c2cn[nH]c2)c1)N1C2CCC1CC(O)(c1ncccn1)C2 (stereo not shown)
output: 13.6

###

So I've got a bunch of molecules here, and I need their Cmax values.
# test protocol: Tissue exposure measurements in rats (plasma and brain)
# Assay type: in vivo
# condition summary: male, Sprague Dawley, rat, plasma, po, 10 mg/kg, 10 mg·kg^−1 oral gavage, mean ± SD
The reply should contain only the number, in ng/mL.

input: Give the reported Cmax for this molecule. O=C(c1csc(-c2cn[nH]c2)c1)N1C2CCC1CC(O)(c1ccccn1)C2 (stereo not shown)
output: 1270

input: Please give measured Cmax of the following entry: N#CC1(c2ccccn2)CC2CCC(C1)N2C(=O)c1csc(-c2cn[nH]c2)c1 (stereo not shown)
output: 291

input: Determine from records and report Cmax for N#CC1(c2ncccn2)CC2CCC(C1)N2C(=O)c1csc(-c2cn[nH]c2)c1 (stereo not shown)
output: 230

input: Please give the documented Cmax of O=C(c1csc(-c2cn[nH]c2)c1)N1C2CCC1CC(O)(c1ncccc1Cl)C2 (stereo not shown)
output: 115

###

# assayed target: CYP2C19 (Homo sapiens)
# Construct: tissue Cyprotex Discovery Limited
# Sequence (P33261 whole entry): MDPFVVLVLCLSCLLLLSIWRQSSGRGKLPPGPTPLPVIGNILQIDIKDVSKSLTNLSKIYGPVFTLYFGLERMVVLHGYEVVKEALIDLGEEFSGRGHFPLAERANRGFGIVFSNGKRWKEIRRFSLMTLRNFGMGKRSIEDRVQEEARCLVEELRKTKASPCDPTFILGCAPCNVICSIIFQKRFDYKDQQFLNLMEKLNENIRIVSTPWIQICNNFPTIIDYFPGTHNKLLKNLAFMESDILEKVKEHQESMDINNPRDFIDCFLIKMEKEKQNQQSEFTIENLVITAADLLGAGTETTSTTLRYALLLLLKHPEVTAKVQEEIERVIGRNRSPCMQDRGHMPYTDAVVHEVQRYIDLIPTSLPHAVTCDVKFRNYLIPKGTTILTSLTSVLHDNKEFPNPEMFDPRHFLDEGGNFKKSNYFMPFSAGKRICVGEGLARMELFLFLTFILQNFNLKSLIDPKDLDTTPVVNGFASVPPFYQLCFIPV
# test protocol: Cytochrome P450 inhibition, CYP2C19
# condition summary: human liver microsomes; read-out: CYP450 isoform 2C19 IC50
readout: IC50 (µM)
A number alone suffices; assume µM.

input: Return reported IC50. Input compound: O=C(c1csc(-c2cn[nH]c2)c1)N1C2CCC1CC(O)(c1ncccn1)C2 (stereo not shown)
output: 1.7

###

# test protocol: Multiple ascending dose study, pharmacokinetics
# Type: in vivo
# condition summary: male, human, plasma, oral, 10 mg, 10 mg b.i.d, Day 10, mean (CV%)
readout: Cmax (ng/mL)
Note: unit ng/mL is implicit; provide only the numeric part.

input: Give the value of Cmax reported for the following: O=C(c1csc(-c2cn[nH]c2)c1)N1C2CCC1CC(O)(c1ncccn1)C2 (stereo not shown) [compound 4]
output: 207

###

# test protocol: Single ascending dose study, pharmacokinetics
# Assay type: in vivo
# condition summary: both sexes, plasma; human, single oral dose 25 mg; mean (CV%)
readout: half-life (h)
Your answer should be a plain number; it is taken to be in h.

input: Give half-life for O=C(c1csc(-c2cn[nH]c2)c1)N1C2CCC1CC(O)(c1ncccn1)C2 (stereo not shown)
output: 10.5

###

# test protocol: CSF study, plasma and CSF pharmacokinetics
# Assay type: in vivo
# condition summary: male, human, plasma, oral, 35 mg, 35 mg b.i.d, Day 4, mean (CV%)
readout: half-life

input: Kindly indicate its recorded half-life. Item: O=C(c1csc(-c2cn[nH]c2)c1)N1C2CCC1CC(O)(c1ncccn1)C2 (stereo not shown) [compound 4]
output: 8.97 h
